Test system: Agrobacterium tumefaciens
ASSAY DETAILS: Antibacterial activity against Agrobacterium tumefaciens NRRL B-36 assessed as growth inhibition after 24 hrs by dilution tube method
Type: functional
ASSAY CONDITIONS: NRRL B-36, 24 h
Response field label takes label 1 when MIC is strictly below 20 µg/mL and label 0 in all other cases.

> print(dat)
                             chemical.string  assigned.category
 1  C[N+](C)(CCCCCCOc1c(Br)cc(Br)cc1Br)Cc1ccc(Br)o1.[Br-]            label 1
 2  Cc1cc(OCCCCCCCCCC[N+](C)(C)Cc2ccc(Br)o2)c(C(C)C)cc1Cl.[Br-]            label 0
 3  C[N+](C)(CCCCOc1ccccc1Cl)Cc1ccc(Br)o1.[Br-]            label 0
 4  C[N+](C)(CCCCCCCCOc1c(Br)cc(Br)cc1Br)Cc1ccc([N+](=O)[O-])o1.[Br-]            label 1
 5  C[N+](C)(CCCCOc1ccc(Cl)cc1)Cc1ccc([N+](=O)[O-])o1.[Br-]            label 0
 6  Cc1cc(OCCCC[N+](C)(C)Cc2ccc(Br)o2)c(C(C)C)cc1Cl.[Br-]            label 0
 7  C[N+](C)(CCCCCOc1c(Br)cc(Br)cc1Br)Cc1ccc([N+](=O)[O-])o1.[Br-]            label 0
 8  Cc1cc(OCCCCCC[N+](C)(C)Cc2ccc([N+](=O)[O-])o2)c(C(C)C)cc1Cl.[Br-]            label 0
 9  Cc1cc(OCCCCCCCCCCCC[N+](C)(C)Cc2ccc(Br)o2)c(C(C)C)cc1Cl.Cc1ccc(S(=O)(=O)[O-])cc1            label 0
10  C[N+](C)(CCCCCCOc1c(Br)cc(Br)cc1Br)Cc1ccc([N+](=O)[O-])o1.[Br-]            label 0
11  Cc1cc(OCCCCCC[N+](C)(C)Cc2ccc(Br)o2)c(C(C)C)cc1Cl.Cc1ccc(S(=O)(=O)[O-])cc1            label 0
12  C[N+](C)(CCCCOc1c(Br)cc(Br)cc1Br)Cc1ccc([N+](=O)[O-])o1.[Br-]            label 0
13  C[N+](C)(CCCCCCCOc1c(Br)cc(Br)cc1Br)Cc1ccc(Br)o1.[Br-]            label 1
14  Cc1cc(OCCCC[N+](C)(C)Cc2ccc([N+](=O)[O-])o2)c(C(C)C)cc1Cl.[Br-]            label 0
15  C[N+](C)(CCCCCCCCCCOc1c(Br)cc(Br)cc1Br)Cc1ccc([N+](=O)[O-])o1.[Br-]            label 1
16  Cc1cc(OCCCCCCC[N+](C)(C)Cc2ccc(Br)o2)c(C(C)C)cc1Cl.[Br-]            label 1

All figures here come from ChEMBL document CHEMBL3244174.
